Tested on: C. elegans
Assay: C. elegans dose-response (viability, minimum lethal concentration)
Type: in vivo, Caenorhabditis elegans
Conditions: Caenorhabditis elegans, 72 h; L1 worms, 3 days at 20° C.; lowest concentration at which at least 20% of worms die; read-out: Minimum Lethal Concentration
measure: minimal effective concentration

Exam item: Requested read-out: minimal effective concentration. Entry: Cc1cn2cc(-c3ccccc3Br)nc2s1
Marked response: > 100 µM

Exam item: Next entry: Cc1c(-c2ccccc2F)nc2sccn12
Marked response: > 100 µM

Exam item: # repeat for Cc1c(-c2cccc(F)c2)nc2sccn12
Marked response: > 100 µM

Exam item: Similarly, Nc1ccc(-c2cn3ccsc3n2)cc1 ?
Marked response: > 100 µM

Exam item: Also need Cc1ccc(-c2nc3sccn3c2C)cc1 , thanks.
Marked response: > 100 µM

Exam item: Again, but for Cc1csc2nc(-c3ccccc3Br)cn12
Marked response: > 100 µM

Exam item: Try the molecule Cc1ccc(-c2cn3ccsc3n2)cc1C
Marked response: > 100 µM

###

Below, each entry is listed alongside its reported minimal effective concentration.
Test system: C. elegans
Assay: C. elegans dose-response (viability, minimum lethal concentration)
Assay type: in vivo, Caenorhabditis elegans
Settings: Caenorhabditis elegans, 72 h; L1 worms, 3 days at 20° C.; same values in ppm; read-out: Minimum Lethal Concentration (ppm)

Answered examples (2):
[[record]]
compound = "Cc1c(-c2ccccc2Cl)nc2sccn12 [I-28]"
measure = "minimal effective concentration"
reading = "> 24.9 µg/mL"

[[record]]
compound = "Cc1ccc(-c2nc3sccn3c2C)cc1 [I-3]"
measure = "minimal effective concentration"
reading = "> 22.8 µg/mL"


In the following, a different compound is considered.
Exam item: Sample Cc1csc2nc(-c3cccc(Br)c3)cn12 [I-36] — what was its minimal effective concentration?
Marked response: > 29.3 µg/mL

###

Test system: M. incognita J2 larvae
Experiment: Meloidogyne incognita in vitro larval mobility assay
Format: in vivo
Settings: Meloidogyne incognita, 96 h, 45 μM, 4 days, replicate 2; read-out: Replicate 2 % Immobile
measure: pest or weed control at 45 µM (%)
Please respond with the number in % and leave the unit unwritten.

Answered examples (8):
[[record]]
compound = "Nc1c(-c2ccccc2)nc2sccn12"
reading = 85.5

[[record]]
compound = "COCc1nn2cc(-c3ccc(F)cc3)nc2s1"
reading = 32.2

[[record]]
compound = "Brc1ccc(-c2cn3c(n2)SCC3)cc1"
reading = 38

[[record]]
compound = "CCc1nn2cc(-c3ccc(C)cc3C)nc2s1"
reading = 19.6

[[record]]
compound = "FC(F)(F)Oc1ccc(-c2cn3ccsc3n2)cc1"
reading = 48.1

[[record]]
compound = "CC(C)NC(=O)N1CC(=O)N(c2cc(Cl)cc(Cl)c2)C1=O [Iprodione, iprodione, reference compound]"
reading = 16.7

[[record]]
compound = "Cc1cn2cc(-c3cccc(Cl)c3)nc2s1"
reading = 20.4

[[record]]
compound = "Cc1cn2cc(-c3ccc(OC(F)F)cc3)nc2s1"
reading = 21.7


Exam item: Test system M. incognita J2 larvae; read-out pest or weed control at 45 µM; what value for Clc1ccc(-c2cn3c(n2)SCC3)cc1 ?
Marked response: 100

Exam item: Another: Clc1ccc(-c2cn3ccsc3n2)s1
Marked response: 100

###

Tested on: C. elegans
Test: C. elegans dose-response (viability, minimum lethal concentration)
Assay type: in vivo, Caenorhabditis elegans
Settings: Caenorhabditis elegans, 72 h; L1 worms, 3 days at 20° C.; same values in ppm; read-out: Minimum Lethal Concentration (ppm)
Parameter: minimal effective concentration. Scope: all listed entries.

[[record]]
compound = "Cc1cn2cc(-c3cccc(Br)c3)nc2s1 [I-37]"
reading = "> 29.3 µg/mL"

[[record]]
compound = "Cc1cn2cc(-c3ccccc3Br)nc2s1 [I-41]"
reading = "> 29.3 µg/mL"

[[record]]
compound = "Cc1csc2nc(-c3cccc(F)c3)cn12 [I-16]"
reading = "> 23.2 µg/mL"

[[record]]
compound = "c1cncc(-c2cn3ccsc3n2)c1 [I-45]"
reading = "> 20.1 µg/mL"

[[record]]
compound = "Cc1c(-c2ccccc2)nc2sccn12 [I-1]"
reading = "> 21.4 µg/mL"


Exam item: Bench note: what minimal effective concentration did Cc1csc2nc(-c3ccccc3Br)cn12 [I-40] show?
Marked response: > 29.3 µg/mL
